Recorded Ratio of JAK3 IC50 to IRAK4 IC50 values for a group of compounds are listed next.
Target: JAK3 kinase (Homo sapiens (Human), UniProt P52333)
Sequence (P52333 whole entry): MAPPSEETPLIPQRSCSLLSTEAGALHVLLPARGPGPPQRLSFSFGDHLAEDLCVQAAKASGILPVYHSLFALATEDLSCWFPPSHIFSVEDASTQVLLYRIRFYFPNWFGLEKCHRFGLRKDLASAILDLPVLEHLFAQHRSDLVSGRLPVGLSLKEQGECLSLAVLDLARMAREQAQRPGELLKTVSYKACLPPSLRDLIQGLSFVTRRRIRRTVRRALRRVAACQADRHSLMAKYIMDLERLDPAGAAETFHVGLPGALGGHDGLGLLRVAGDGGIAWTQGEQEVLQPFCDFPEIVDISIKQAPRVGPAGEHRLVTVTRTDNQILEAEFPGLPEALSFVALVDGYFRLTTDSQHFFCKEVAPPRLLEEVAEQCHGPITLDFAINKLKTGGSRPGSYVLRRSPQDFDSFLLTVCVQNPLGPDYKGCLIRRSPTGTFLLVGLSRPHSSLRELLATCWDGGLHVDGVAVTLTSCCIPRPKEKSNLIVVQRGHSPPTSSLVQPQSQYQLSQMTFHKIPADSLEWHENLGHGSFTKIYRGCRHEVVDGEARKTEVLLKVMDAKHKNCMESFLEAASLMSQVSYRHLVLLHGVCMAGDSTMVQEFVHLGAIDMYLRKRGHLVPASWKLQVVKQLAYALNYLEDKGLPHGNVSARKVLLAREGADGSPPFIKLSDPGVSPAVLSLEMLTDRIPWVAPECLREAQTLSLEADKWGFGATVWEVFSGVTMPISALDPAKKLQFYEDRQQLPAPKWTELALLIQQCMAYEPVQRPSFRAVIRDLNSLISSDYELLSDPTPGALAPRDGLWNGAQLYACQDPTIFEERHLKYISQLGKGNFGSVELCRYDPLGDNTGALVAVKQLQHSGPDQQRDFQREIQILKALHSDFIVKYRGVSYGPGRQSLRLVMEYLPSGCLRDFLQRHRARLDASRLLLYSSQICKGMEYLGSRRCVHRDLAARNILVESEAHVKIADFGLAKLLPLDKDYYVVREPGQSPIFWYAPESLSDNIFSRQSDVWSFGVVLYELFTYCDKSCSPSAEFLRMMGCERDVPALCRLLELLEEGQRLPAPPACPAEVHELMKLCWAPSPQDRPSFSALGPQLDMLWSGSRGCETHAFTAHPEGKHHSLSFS
Assay: JAK3 Homogeneous Time Resolved Fluorescence (HTRF) Assay
Assay type: binding
Conditions: selectivity for IRAK4 over JAK3

Some solved entries appear below for comparison.
smiles code: CC(C)Nc1c(C(=O)NC[C@@H](F)C(C)(C)O)cnc2cc(-c3cccnc3F)nn12
test readout: Ratio of JAK3 IC50 to IRAK4 IC50
recorded value: >208

smiles code: CC(C)Nc1c(C(=O)NC[C@@H](F)C(C)(C)O)cnn2cc(C#N)cc12
test readout: Ratio of JAK3 IC50 to IRAK4 IC50
recorded value: >263

smiles code: CC(C)Nc1c(C(=O)NC[C@@H](F)C(C)(C)O)cnn2cc(-c3ccncc3)nc12
test readout: Ratio of JAK3 IC50 to IRAK4 IC50
recorded value: >3333

smiles code: CC(C)Nc1c(C(=O)NC[C@@H](F)C(C)(C)O)cnc2cc(-c3ccncc3F)nn12
test readout: Ratio of JAK3 IC50 to IRAK4 IC50
recorded value: >1190

# input for lookup
In: Which Ratio of JAK3 IC50 to IRAK4 IC50 value belongs to "Cc1ccc(-c2cc3ncc(C(=O)NC[C@@H](F)C(C)(C)O)c(NC(C)C)n3n2)cn1" ?
Out: >2500

---

Target: JAK3 kinase (Homo sapiens (Human))
test readout: IC50

Some solved entries appear below for comparison.
smiles code: CC(C)(C)CNc1c(C(=O)NC[C@@H](F)C(C)(C)O)cnc2cc(-c3cccnc3)nn12
assayed system: JAK3 kinase (Homo sapiens (Human))
IC50: > 50 µM
--
smiles code: CC(C)(O)CCNc1c(C(=O)NC[C@@H](F)C(C)(C)O)cnn2cc(-c3cccnc3)cc12
assayed system: JAK3 kinase (Homo sapiens (Human))
IC50: > 50 µM
--
smiles code: CC(C)Nc1c(C(=O)NC[C@@H](F)C(C)(C)O)cnn2cc(-c3cncs3)cc12
assayed system: JAK3 kinase (Homo sapiens (Human))
IC50: > 50 µM
--
smiles code: CC(C)Nc1c(C(=O)NC[C@@H](F)C(C)(C)O)cnc2cc(-n3ccccc3=O)nn12
assayed system: JAK3 kinase (Homo sapiens (Human))
IC50: > 50 µM

In: Query the reported IC50 for JAK3 kinase (Homo sapiens (Human)); item: "CC(C)Nc1c(C(=O)N[C@H]2CC[C@H](C(=O)N3CCOCC3)CC2)cnn2cc(-c3ccncc3F)cc12"
Out: > 50 µM

In: Query the reported IC50 for JAK3 kinase (Homo sapiens (Human)); item: "CC(=O)N[C@H]1CC[C@H](NC(=O)c2cnn3cc(-c4cnc(F)cc4C)cc3c2NC(C)C)CC1"
Out: ~22 µM

In: Query the reported IC50 for JAK3 kinase (Homo sapiens (Human)); item: "CC(C)Nc1c(C(=O)NC[C@@H](F)C(C)(C)O)cnn2cc(-c3cccc(CN4CCOCC4)c3)cc12"
Out: > 10 µM
